Entry source: PubChem BioAssay (NCI)

experiment: NCI Yeast Anticancer Drug Screen. Data for the cln2 rad14 strain (AID 165); details: S. cerevisiae cln2 rad14 strain, at 50.0 µM (retest, dose inferred, filed as 5.0)
This is part of a sample that, as a whole, favours compounds with a hit. Of some 79,000 tested, about 15% had one in any assay. Activity calls are given as the source filed them. Cut-off read from the data, not from the text of the source: active = growth inhibition above about 70%; inactive = the rest.
Could you please pick one outcome from this set? Y = active, N = inactive

-- ask What classification did COC(=O)CCCCC(=O)N(C(C)C)C(C)C end up with in this test?
-- reply N

-- ask Now the compound CN(C)CCC(=O)[C@@]1(O)CC[C@H]2[C@@H]3CC=C4C[C@@H](O)CC[C@]4(C)[C@H]3CC[C@@]21C
-- reply N

-- ask Now the compound C/C(=N\Nc1ccccn1)c1ccccn1
-- reply Y

-- ask Now the compound N#CC1=C(N)OC(c2ccccc2)=C(C#N)C1c1ccccc1[N+](=O)[O-] (configuration not stated)
-- reply N

-- ask Now the compound Clc1ccc(CN2COc3c(ccc4ccccc34)C2)cc1
-- reply Y

-- ask Now the compound CNC(=O)OCC1=CC(=O)C(OC)=C(OC)C1=O
-- reply N

-- ask Now the compound CC1(C)CCCC12C=NCC2 (configuration not stated)
-- reply N

-- ask Now the compound C=C(Cl)C(=NC(C)(C)C)Nc1ccccc1Cl
-- reply N

-- ask Now the compound CCN1CCC(O)(/C=C/c2ccccc2C)C(C(=O)/C=C/c2ccccc2C)C1 (configuration not stated)
-- reply N

-- ask Now the compound c1ccc(-c2cc(-c3cc(-c4ccccn4)[nH]n3)n[nH]2)nc1
-- reply N

-- ask Now the compound CCOc1nc(N)nc(C)c1N=Nc1ccc(Cl)cc1
-- reply N

-- ask Now the compound O=C(O)c1cc(Br)ccc1OCc1ccc(Cl)cc1
-- reply N

-- ask Now the compound Cc1ccc(NC(=S)N(CCC#N)C2CCCCC2)cc1C
-- reply N

-- ask Now the compound CC1=C(C)C(=O)C(CNCc2ccccc2)=[C-]C1=O.[Co].[c-]1[c-][c-][cH-][c-]1
-- reply N

-- ask Now the compound Cc1cnc(Sc2c([N+](=O)[O-])ncn2C)nc1
-- reply N

-- ask Now the compound CN(C)CCCCN1c2ccccc2Sc2ccc(C(=O)c3ccccc3)cc21
-- reply Y

-- ask Now the compound Cc1ccc(OCC2CO2)c(Br)c1 (configuration not stated)
-- reply N

-- ask Now the compound Cn1c(=O)c2c(nnc(-c3ccccc3)[n+]2[O-])n(C)c1=O
-- reply N

-- ask Now the compound CN1C(=O)c2ccccc2C1(c1ccccc1)c1ccccc1
-- reply N

-- ask Now the compound O=C1/C(=C/c2ccc(Cl)c(Cl)c2)CN(C(=O)CCN2CCOCC2)C/C1=C\c1ccc(Cl)c(Cl)c1
-- reply Y

-- ask Now the compound Cc1ccc(S(=O)(=O)Oc2c([N+](=O)[O-])cc(C)cc2[N+](=O)[O-])cc1
-- reply N

-- ask Now the compound OC1CCC(COC(c2ccccc2)(c2ccccc2)c2ccccc2)O1 (configuration not stated)
-- reply Y

-- ask Now the compound COC(=O)C(=O)C(C(=O)c1ccc(F)cc1)c1nc2n(c1O)C(=N)N=N2 (configuration not stated)
-- reply N

-- ask Now the compound CC(C)c1cc(C(=O)[O-])c(O)c(C(C)C)c1.CC(C)c1cc(C(=O)[O-])c(O)c(C(C)C)c1.CC(C)c1cc(C(=O)[O-])c(O)c(C(C)C)c1.CC(C)c1cc(C(=O)[O-])c(O)c(C(C)C)c1.CC(C)c1cc(C(=O)[O-])c(O)c(C(C)C)c1.CC(C)c1cc(C(=O)[O-])c(O)c(C(C)C)c1.[Cu+2].[Mn+2].[Mn+2]
-- reply N

-- ask Now the compound COc1ccc(/C=C2\CN(C)C/C(=C\c3ccc(OC)c(OC)c3OC)C2=O)c(OC)c1OC
-- reply Y

-- ask Now the compound COc1nc(NC2OC(CO)C(O)C(O)C2O)c(Cl)c(=O)[nH]1 (configuration not stated)
-- reply N

-- ask Now the compound Cc1ccc(C2(O)CC(c3ccc([N+](=O)[O-])o3)=NN2C(=O)COc2ccc(Cl)cc2)cc1 (configuration not stated)
-- reply N

-- ask Now the compound O=C1Oc2ccccc2C(=O)/C1=C/N1C(=O)/C(=C/c2ccc([N+](=O)[O-])cc2)SC1=S
-- reply Y

-- ask Now the compound CCN1CCC(O)(/C=C/c2ccccc2)C(C(=O)/C=C/c2ccccc2)C1 (configuration not stated)
-- reply Y

-- ask Now the compound CCCCCCCCCCCC(=O)OCCN(CCOC(=O)CCCCCCCCCCC)C(=O)COC(=O)CCCCCCCCCCC
-- reply Y

-- ask Now the compound Nc1ccc(S(=O)(=O)C23CC4CC(CC(C4)C2)C3)cc1
-- reply Y

-- ask Now the compound Cc1c(N=Nc2ccc(Br)cc2)c(-c2ccccc2)nn1C(N)=S
-- reply Y
